Each record here notes measured α-glucosidase inhibition, inhibition (%) at 0.5 mM.
EXPERIMENTAL TARGET: UniProt P53341
EXPERIMENT SUMMARY: α-Glucosidase assay
Format: biochemical
EXPERIMENTAL PARAMETERS: 0.5 mM; mean ± SEM, triplicate
Unit % implied. Number only.

Sample answers from the record:
I'd like to know its α-glucosidase inhibition, inhibition (%) at 0.5 mM. The compound in question is Cc1ccc(S(=O)(=O)N2CCC(c3nnc(SCC(=O)Nc4ccccc4C)n3C)CC2)cc1 [Compound 12c] 72.45

I'd like to know its α-glucosidase inhibition, inhibition (%) at 0.5 mM. The compound in question is Cc1ccc(S(=O)(=O)N2CCC(c3nnc(SCC(=O)Nc4cc(C)cc(C)c4)n3C)CC2)cc1 [Compound 12m] 87.21

I'd like to know its α-glucosidase inhibition, inhibition (%) at 0.5 mM. The compound in question is CCc1cccc(C)c1NC(=O)CSc1nnc(C2CCN(S(=O)(=O)c3ccc(C)cc3)CC2)n1C [Compound 12n] 92.65

***
I'd like to know its α-glucosidase inhibition, inhibition (%) at 0.5 mM. The compound in question is CCOc1ccc(NC(=O)CSc2nnc(C3CCN(S(=O)(=O)c4ccc(C)cc4)CC3)n2C)cc1 [Compound 12h] 73.12

* * *

EXPERIMENTAL TARGET: α-glucosidase (Saccharomyces cerevisiae, UniProt P53341)
Sequence (P53341 whole entry): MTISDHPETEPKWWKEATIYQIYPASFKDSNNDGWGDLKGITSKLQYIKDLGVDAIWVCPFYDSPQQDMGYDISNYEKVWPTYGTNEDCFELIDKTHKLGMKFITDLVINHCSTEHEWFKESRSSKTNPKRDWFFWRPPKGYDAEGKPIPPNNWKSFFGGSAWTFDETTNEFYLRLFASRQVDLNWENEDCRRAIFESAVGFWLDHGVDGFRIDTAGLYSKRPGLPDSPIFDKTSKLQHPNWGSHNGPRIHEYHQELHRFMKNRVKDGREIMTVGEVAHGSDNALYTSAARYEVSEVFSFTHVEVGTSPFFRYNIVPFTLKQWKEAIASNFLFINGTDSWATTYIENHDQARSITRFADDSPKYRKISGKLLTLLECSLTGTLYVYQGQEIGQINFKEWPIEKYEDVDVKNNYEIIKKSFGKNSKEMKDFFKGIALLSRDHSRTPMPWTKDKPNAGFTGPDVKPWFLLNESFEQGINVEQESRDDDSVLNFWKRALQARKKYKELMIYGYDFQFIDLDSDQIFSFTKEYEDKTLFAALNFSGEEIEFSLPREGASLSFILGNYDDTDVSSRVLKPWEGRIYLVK
EXPERIMENT SUMMARY: α-Glucosidase assay
Type: biochemical
EXPERIMENTAL PARAMETERS: 0.5 mM; mean ± SEM, triplicate
PARAMETER: α-glucosidase inhibition, inhibition (%) at 0.5 mM
Unit % implied. Number only.

Sample answers from the record:
I'd like to know its α-glucosidase inhibition, inhibition (%) at 0.5 mM. The compound in question is Cc1ccc(S(=O)(=O)N2CCC(c3nnc(SCC(=O)Nc4cccc(C)c4)n3C)CC2)cc1 [Compound 12d] 91.52

I'd like to know its α-glucosidase inhibition, inhibition (%) at 0.5 mM. The compound in question is Cc1ccc(S(=O)(=O)N2CCC(c3nnc(SCC(=O)Nc4cccc(C)c4C)n3C)CC2)cc1 [Compound 12i] 31.53

I'd like to know its α-glucosidase inhibition, inhibition (%) at 0.5 mM. The compound in question is Cc1ccc(S(=O)(=O)N2CCC(c3nnc(SCC(=O)Nc4cc(C)ccc4C)n3C)CC2)cc1 [Compound 12k] 71.16

I'd like to know its α-glucosidase inhibition, inhibition (%) at 0.5 mM. The compound in question is Cc1ccc(S(=O)(=O)N2CCC(c3nnc(SCC(=O)Nc4ccccc4)n3C)CC2)cc1 [Compound 12b] 76.23

I'd like to know its α-glucosidase inhibition, inhibition (%) at 0.5 mM. The compound in question is Cc1ccc(S(=O)(=O)N2CCC(c3nnc(SCC(=O)Nc4ccc(C)cc4C)n3C)CC2)cc1 [Compound 12j] 72.25

Now look at this one.
I'd like to know its α-glucosidase inhibition, inhibition (%) at 0.5 mM. The compound in question is CCc1ccccc1NC(=O)CSc1nnc(C2CCN(S(=O)(=O)c3ccc(C)cc3)CC2)n1C [Compound 12f] 74.95

* * *

EXPERIMENTAL TARGET: LOX (Glycine max, UniProt P08170)
Sequence (P08170 1-839): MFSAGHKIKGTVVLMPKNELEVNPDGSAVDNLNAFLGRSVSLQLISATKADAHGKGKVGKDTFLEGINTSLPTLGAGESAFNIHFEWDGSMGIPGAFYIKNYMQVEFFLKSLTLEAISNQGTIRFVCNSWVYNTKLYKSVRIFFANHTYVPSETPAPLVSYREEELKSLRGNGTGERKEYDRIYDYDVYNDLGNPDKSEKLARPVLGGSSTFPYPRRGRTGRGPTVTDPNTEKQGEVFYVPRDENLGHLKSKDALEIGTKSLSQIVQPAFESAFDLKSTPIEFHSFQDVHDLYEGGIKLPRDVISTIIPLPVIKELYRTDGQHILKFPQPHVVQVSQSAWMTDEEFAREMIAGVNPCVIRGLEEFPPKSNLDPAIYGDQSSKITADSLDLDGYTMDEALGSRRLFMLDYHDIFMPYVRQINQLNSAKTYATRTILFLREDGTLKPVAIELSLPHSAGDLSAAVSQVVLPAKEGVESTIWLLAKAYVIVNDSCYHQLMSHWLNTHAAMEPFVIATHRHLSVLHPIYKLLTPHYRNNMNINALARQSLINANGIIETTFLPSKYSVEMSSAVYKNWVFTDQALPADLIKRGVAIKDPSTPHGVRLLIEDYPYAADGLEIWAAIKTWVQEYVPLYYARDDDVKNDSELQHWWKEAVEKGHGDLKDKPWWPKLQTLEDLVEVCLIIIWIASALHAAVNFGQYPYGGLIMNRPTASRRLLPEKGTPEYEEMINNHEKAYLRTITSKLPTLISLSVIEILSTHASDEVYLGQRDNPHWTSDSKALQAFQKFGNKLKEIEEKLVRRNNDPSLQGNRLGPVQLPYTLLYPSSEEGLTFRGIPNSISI
EXPERIMENT SUMMARY: Lipoxygenase assay
Assay type: biochemical
EXPERIMENTAL PARAMETERS: 0.25 mM; mean ± SEM, triplicate
LOX inhibition, inhibition (%) at 0.25 mM vs 50%: at or above is YES, below is NO.

Can Cc1ccc(S(=O)(=O)N2CCC(c3nnc(SCC(=O)Nc4cccc(C)c4C)n3C)CC2)cc1 [Compound 12i] be said to have LOX inhibition, inhibition (%) at 0.25 mM at or above 50%? NO

Can CCc1cccc(C)c1NC(=O)CSc1nnc(C2CCN(S(=O)(=O)c3ccc(C)cc3)CC2)n1C [Compound 12n] be said to have LOX inhibition, inhibition (%) at 0.25 mM at or above 50%? NO

Can Cc1ccc(S(=O)(=O)N2CCC(c3nnc(SCC(=O)Nc4ccccc4)n3C)CC2)cc1 [Compound 12b] be said to have LOX inhibition, inhibition (%) at 0.25 mM at or above 50%? NO

Can Cc1ccc(NC(=O)CSc2nnc(C3CCN(S(=O)(=O)c4ccc(C)cc4)CC3)n2C)cc1 [Compound 12e] be said to have LOX inhibition, inhibition (%) at 0.25 mM at or above 50%? NO

Can Cc1ccc(S(=O)(=O)N2CCC(c3nnc(SCC(=O)Nc4c(C)cccc4[N+](=O)[O-])n3C)CC2)cc1 [Compound 12o] be said to have LOX inhibition, inhibition (%) at 0.25 mM at or above 50%? YES

***
Can CCOc1ccc(NC(=O)CSc2nnc(C3CCN(S(=O)(=O)c4ccc(C)cc4)CC3)n2C)cc1 [Compound 12h] be said to have LOX inhibition, inhibition (%) at 0.25 mM at or above 50%? YES

Can CCc1ccccc1NC(=O)CSc1nnc(C2CCN(S(=O)(=O)c3ccc(C)cc3)CC2)n1C [Compound 12f] be said to have LOX inhibition, inhibition (%) at 0.25 mM at or above 50%? YES

Can Cc1ccc(S(=O)(=O)N2CCC(c3nnc(SCC(=O)Nc4ccccc4C)n3C)CC2)cc1 [Compound 12c] be said to have LOX inhibition, inhibition (%) at 0.25 mM at or above 50%? NO

Can Cc1ccc(S(=O)(=O)N2CCC(c3nnc(SCC(=O)Nc4ccc(C)cc4C)n3C)CC2)cc1 [Compound 12j] be said to have LOX inhibition, inhibition (%) at 0.25 mM at or above 50%? NO

Can Cc1ccc(S(=O)(=O)N2CCC(c3nnc(SCC(=O)Nc4cccc(C)c4)n3C)CC2)cc1 [Compound 12d] be said to have LOX inhibition, inhibition (%) at 0.25 mM at or above 50%? YES

Can Cc1ccc(S(=O)(=O)N2CCC(c3nnc(SCC(=O)Nc4cc(C)cc(C)c4)n3C)CC2)cc1 [Compound 12m] be said to have LOX inhibition, inhibition (%) at 0.25 mM at or above 50%? NO

Can Cc1ccc(S(=O)(=O)N2CCC(c3nnc(SCC(=O)NC4CCCCC4)n3C)CC2)cc1 [Compound 12a] be said to have LOX inhibition, inhibition (%) at 0.25 mM at or above 50%? NO

Can Cc1ccc(S(=O)(=O)N2CCC(c3nnc(SCC(=O)Nc4c(C)cccc4C)n3C)CC2)cc1 [Compound 12l] be said to have LOX inhibition, inhibition (%) at 0.25 mM at or above 50%? NO

Can Cc1ccc(S(=O)(=O)N2CCC(c3nnc(SCC(=O)Nc4cc(C)ccc4C)n3C)CC2)cc1 [Compound 12k] be said to have LOX inhibition, inhibition (%) at 0.25 mM at or above 50%? NO

Can COc1ccccc1NC(=O)CSc1nnc(C2CCN(S(=O)(=O)c3ccc(C)cc3)CC2)n1C [Compound 12g] be said to have LOX inhibition, inhibition (%) at 0.25 mM at or above 50%? NO
